Recorded pEC50 hSCTR for the following binders
target: human secretin receptor (hSCTR) (human, UniProt P47872 23-440); assay: cell-based or functional assay
Sequence (P47872 23-440): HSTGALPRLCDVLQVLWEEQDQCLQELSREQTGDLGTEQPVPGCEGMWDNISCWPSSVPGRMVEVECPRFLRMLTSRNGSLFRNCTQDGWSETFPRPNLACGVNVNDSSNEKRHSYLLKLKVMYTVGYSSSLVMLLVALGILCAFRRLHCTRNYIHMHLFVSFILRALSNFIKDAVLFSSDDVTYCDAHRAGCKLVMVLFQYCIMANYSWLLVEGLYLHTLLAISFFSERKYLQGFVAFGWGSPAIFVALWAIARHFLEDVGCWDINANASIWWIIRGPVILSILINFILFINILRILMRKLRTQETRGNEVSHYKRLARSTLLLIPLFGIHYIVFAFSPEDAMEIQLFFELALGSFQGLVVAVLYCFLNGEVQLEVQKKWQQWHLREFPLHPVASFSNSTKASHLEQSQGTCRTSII
Numbered stars: 1 amine (or outer) side, 2 acyl side, 3 side chain; on linkers, the order of the positions; unused ones are H or OH. Square brackets hold non-standard residues; d marks the D form. Side chains are listed from the residue outwards. Ends that are not written are not given here. * marks the point of attachment. C20 diacid = O=C(O)CCCCCCCCCCCCCCCCCCC(=O)*; γGlu = O=C(O)[C@H](CCC(=O)[*:2])N[*:1]; AEEA = NCCOCCOCC(=O)O; Aib = CC(C)(N)C(=O)O

The binder H[Aib]EGTFTSDVSYLK([AEEA-AEEA-γGlu-C20 diacid])E[Aib]AATQRFLEHLV-NH2 [SEQ ID NO: 48] showed pEC50 hSCTR equal to 6.9 -log M

The binder H[Aib]EGTFTSDVSRLK([AEEA-AEEA-γGlu-C20 diacid])ETAAEQRFLEHLV-NH2 [SEQ ID NO: 34] showed pEC50 hSCTR equal to 6.4 -log M

The binder H[Aib]EGTFTSDVSPLKEEA[Aib]LQRFLEHLV-NH2 (not fully specified (residue 14); also: K14 lipidated with C20DA[γE][OEG][OEG]- or C18DA[γE][OEG][OEG]-) [SEQ ID NO: 140] showed pEC50 hSCTR equal to 4.7 -log M

The binder H[Aib]EGTFTSDVSVLK([AEEA-AEEA-γGlu-C20 diacid])ELAAQQRFLEHLV-NH2 [SEQ ID NO: 33] showed pEC50 hSCTR equal to 6.5 -log M

The binder H[Aib]EGTFTSDVSTLK([AEEA-AEEA-γGlu-C20 diacid])EEA[Aib]LQRFLEHLV-NH2 [SEQ ID NO: 165] showed pEC50 hSCTR equal to 8 -log M

The binder H[Aib]EGTFTSDVSRLK([AEEA-AEEA-γGlu-C20 diacid])EEAASQRFLEHLV-NH2 [SEQ ID NO: 17] showed pEC50 hSCTR equal to 6.6 -log M
